# Test System: human δ opioid receptor (human, UniProt P41143 1-372)
# Sequence (P41143 whole entry, stated change not applied): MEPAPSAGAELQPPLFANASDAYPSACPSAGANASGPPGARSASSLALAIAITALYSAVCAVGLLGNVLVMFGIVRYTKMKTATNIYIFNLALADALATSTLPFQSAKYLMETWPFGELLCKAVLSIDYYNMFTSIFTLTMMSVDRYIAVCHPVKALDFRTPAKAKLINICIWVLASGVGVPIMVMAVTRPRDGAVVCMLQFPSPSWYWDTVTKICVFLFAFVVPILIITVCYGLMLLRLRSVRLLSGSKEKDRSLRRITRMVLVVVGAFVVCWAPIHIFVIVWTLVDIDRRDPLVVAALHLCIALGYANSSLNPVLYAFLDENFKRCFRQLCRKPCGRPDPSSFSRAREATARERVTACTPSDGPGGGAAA
# Protocol Details: cell-based or functional assay
Square brackets hold non-standard residues; d marks the D form. * marks the point of attachment. OBzl(3,5-(CF3)2) = FC(F)(F)c1cc(CO*)cc(C(F)(F)F)c1
Use 20 nM as the dividing line for [35S]GTP-γ-S binding EC50, with the line itself on the t side and lower values as f.

Q: Is the recorded value of [35S]GTP-γ-S binding EC50 equal to or greater than 20 nM for this binder? H-Y[dA]GF[dF]PLW-{OBzl(3,5-(CF3)2)} (also: TFA salt, TFA salt; also called TY007) [H-Tyr-D-Ala-Gly-Phe-D-Phe-Pro-Leu-Trp-O-3,5-Bzl(CF3)2]
A: f

Q: Threshold query ([35S]GTP-γ-S binding EC50 >= 20 nM) on H-Y[dA]GFMPLW-{OBzl(3,5-(CF3)2)} (also: TFA salt, TFA salt; also called TY005; TY5) [H-Tyr-D-Ala-Gly-Phe-Met-Pro-Leu-Trp-O-3,5-Bzl(CF3)2]
A: f

Q: Tell me whether [35S]GTP-γ-S binding EC50 is at least 20 nM here: H-Y[dA]GFGPLW-{OBzl(3,5-(CF3)2)} (also: TFA salt, TFA salt; also called TY006) [H-Tyr-D-Ala-Gly-Phe-Gly-Pro-Leu-Trp-O-3,5-Bzl(CF3)2]
A: t

Q: # check: [35S]GTP-γ-S binding EC50 of H-Y[dA]GFFPLW-{OBzl(3,5-(CF3)2)} (also: TFA salt, TFA salt; also called TY003) [H-Tyr-D-Ala-Gly-Phe-Phe-Pro-Leu-Trp-O-3,5-Bzl(CF3)2] is greater than or equal to 20 nM
A: t

Q: Answer whether [35S]GTP-γ-S binding EC50 of YAGFXPLW (D-Ala at 2; Nle (norleucine, written X) at 5; C-terminal 3,5-bis(trifluoromethyl)benzyl ester, TFA salt; also called TY018) [H-Tyr-D-Ala-Gly-Phe-Nle-Pro-Leu-Trp-O-3,5-Bzl(CF3)2] is greater than or equal to 20 nM.
A: f

Q: // inclusive: [35S]GTP-γ-S binding EC50 at least 20 nM? input: H-Y[dA]GFLPLW-{OBzl(3,5-(CF3)2)} (also: TFA salt, TFA salt; also called TY004) [H-Tyr-D-Ala-Gly-Phe-Leu-Pro-Leu-Trp-O-3,5-Bzl(CF3)2]
A: f
